System: MS2 coat protein
Test: apparent KD of MS2 coat protein; higher = weaker reporter binding
Details: Eterna round: R107; input ligand: tryptophan 2.4 mM
Class Criterion met: apparent KD of MS2 coat protein at least 30 nM. Class Criterion not met: apparent KD of MS2 coat protein below 30 nM.

* GGGCAAGAGGGAAGGAGCGUCAGCUGAGUCACAUGAGGAUCACCCAUGUAGCACAUAGUGUGACAGGUAGGUCGCCCUCUGCCCU [SS-ArgB5] | Criterion not met
* CGAUGAUGAAGGGAUACCAGAAAUGGUAUUCCUUUAUUUCUUACAUGAGGAUCACCCAUGUUCCCUUGGCAGCUUUUUAUCAUCG [ETHB #6] | Criterion met
* AAGCUGCCAAGAACAUGGGUGAAAUGUGAUACCAGCUAGGAAACUAGCCCUUGGCAGCACAUGAGGAUCACCCAUGUAAUAAUAA [(T)'-(M)'-(T1)-(T2)-(M1)-(M2)_Design2_2/19/17] | Criterion met
* ACGUAAUGCAGAAGGAGCGUCUUAUGUAUACAUGAGGAUCACCCAUGUAAUAUGUGGUUGAGACAGGUAGGUCGCUGAAGUACGA [JR_SSArginiB_Sub009] | Criterion met
* CUAUAUAUAAGAAGGAGCGACAUGAGGAUCACCCAUGUCUACCACGUCGAAAGACGCUCAUGUCAGGUAGGUCGCUUAUAUAUAG [Astros-Eli-mod1] | Criterion met
* UGGCAAGAGGGAAGGAGCGUCAGCAGAGUAACAUGAGGAUCACCCAUGUAGCACGUGGUGUGACAGGUAGGUCGCCCUCUGCCGU [SS-ArgB13] | Criterion not met
* CAGGUGGACUGAAGGAGCGAGUCAGGGACUUACAUGAGGAUCACCCAUGUCACGGUCGUCACUCAGGUAGGUCGCAGUUCGCCUC [Diinan] | Criterion met
* GAUUGCAUCGAUUCUCCACUCGCACCUGAUACCAGCGAUAGAAUUCGCCCUUGGCAGCAGUACACAUGAGGAUCACCCAUGUUAU [theeternabot_exclusion_MS2_Theo_A_20] | Criterion met
* AAUAUUAACUGAAGGAGCGUGUUAUGUACAUGAGGAUCACCCAUGUAUAGGGUAAUACUAACACAGGUAGGUCGCAGAAUAAUUA [JR_SSArginiB_Sub010] | Criterion not met
* CUAAGAGUAGGAAGGAGCGACAUGAGGAUCACCCAUGUGGCUCUCAUGGCCCGGGUCUUAUGUCAGGUAGGUCGCCUACUGUUUA [Solave] | Criterion not met
* AGGAAACAACAUGAGGAUCACCCAUGUGAUACCAGUAUCAAAAGAUACCCUUGGCAGCACACAUGACAUGAGGAUCACCCAUGUA [AstrosSSTheA#2] | Criterion met
* GGGCGCUAUCCCGCGAGGGAUAGCGUUCGACGAGGACCGGUACGGCCGCCACUCGAACGAGUGGGUACAUGAGGAUCACCCAUGU [Gaa] | Criterion not met

* * *

# apparent KD of K4 kissing-loop reporter values compiled below
System: K4 kissing-loop RNA reporter
Assay: apparent KD of K4 kissing-loop reporter; higher = weaker reporter binding
Conditions: Eterna round: R107; input ligand: FMN 200 uM
measurement kind: apparent KD of K4 kissing-loop reporter

* GGCCGGAAGGCGAGCGCUCCCACUCCGGAAGGAGCGCCCGUAAGGGCAGGUAGGUCGCCGGAGUGAUGUUCCGGUGGAGGGCUCG [#2 Exclusion - Arginine A Attempt #21 (Inspired by Omei)] | 165 nM
* GAAUUAUGUAGAAGGAGCGUUAGAAGGUAUAGGUGCGAGUGAUGUUUGGAUUUGUUAAUUUGACAGGUAGGUCGCUACAGAAGGA [KL-SSArg B18 #analogue] | 946 nM
* GAUUUAGAGGCGGCCGCCACUAGUGAUGUUAGUGAUGUUUGAUAGGGAAUAUAUCUGCGAGUAGAUAGGACCGGGCCAGAUGGAG [eccvbmullin] | 192 nM
* AGUCCUAUGACGGCCGCCACUCCGGUUAUGAUUUGCCAAGUGAUGUUUGGGUAUCAGGCGAGGCGGAGGACCGGGUCGACCUGCC [theeternabot_exclusion_KL_Trp_B_18] | 171 nM
* CUGGGUUGACGAAAAGUCAACAAAUGAGAAGGAGCGCACGAAAGUGCAGGUAGGUCGCUCAAUCCAGUGAUGUUGGAUCAUCCAG [#SwitchBubble 12 #K4Late] | 571 nM

* * *

Tested on: MS2 coat protein
Assay: apparent KD of MS2 coat protein; higher = weaker reporter binding
Conditions: Eterna round: R107; input ligand: theophylline 2 mM
# apparent KD of MS2 coat protein values compiled below
measurement kind: apparent KD of MS2 coat protein (nM)

• AAUAAGAUCCUCAUGUGAGUCGUACCAUAACGAGGACCGGUACGGCCGCCACUCGAACAUGAGGAUCACCCAUGUAGGUACGACA [M'-T'-T-MS2-T'' - Design 8] = 882
• UAAACUACACAUGAGGAUCACCCAUGUGGCCGAGGACCGGUACGGCCGCCACUCGUGUGUUAAUAAAAGAACUGCAAAGUUCCUU [Aquen] = 504
• UGUAUGGACUGAAGGAGCGGGAAAUAAACUUGAGGAUCACCCAGGUAAUAGGCGAAAGCCACCCAGGUAGGUCGCAGUCCAUACU = 45.7
• GACAUUAUCUGAAGGAGCGAGGUAAAUAGGGAUGAGCAUACAUGAGGAUCACCCAUGUGGCCUCAGGUAGGUCGCAGAUGAGAUU [Exclusion Arginine B GF26] = 453
• GCUUGCUUGUAAGGUUCUGUCCGGCGUCGUCGAGGACCGGUACGGCCGCCACUCGCGCGUUUACAUGAGGAUCACCCAUGUCAUG [theeternabot_exclusion_MS2_Trp_A_49] = 35
• AAUCAUGGAAACAUGACAUGAGGGUUACUCCGAGGACCGGUACGGCCGCCACUCGCGAGGAGGCGGACAUGAGGAUCACCCAUGU [#04 Tryptophan A Same State] = 260
• GCCAUCGGCGGAAGCCGAUGGGAUACAGAAGGAGCGCGGAUUAACGCAGGUAGGUCGCUGGACAUGAGGAUCACCCAUGUAAUAG [SSAA #9] = 22.5
• GGGAUAUAGGCGGCCGCCACUGAUUUUCAUAUAUAUAUAACAUGAGGAUCACCCAUGUAGAUAUACAGGACCGGGCCUAUAUUUU [aaaD] = 21.1
• GGUUGAAACUGAAGGAGCGAGAUCACAAGAUUGGGUCUAACAUGAGGAUCACCCAUGUAAUCUCAGGUAGGUCGCAGUGACCAAA [Exclusion Arginine B GF 13] = 51.7
• GCUAGGUCUACGGCCGCCACUAGACGUGGGUUAAACAUGAGGAUCACCCAUGUGCUACAGGCGCAUAGGACCGGGUAGACCUAGC [SSTB NP+V+V2 #9 +-Same Structure] = 696
• GGGUGGUAGGCGGCCGCCACUGAUUUUUAUUUAUAGAUGACAUGAGGAUCACCCAUGUAGAUAUGCAGGACCGGGCCUGUUGUUU [aaaO] = 19.3
• ACCUGUACGAAAAGUGCAGGACACGGAUAACGAGGACCGGUACGGCCGCCACUCGGAAUAACCUGAGGAUCACCCUGGUACCGUG [TrypAS 8 #AlternativeMS2 #Zipper #StaticStem] = 23.2

* * *

System: K4 kissing-loop RNA reporter;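 further: bound reporter read as fluorescence of individual clusters on recovered sequencing chips by microscopy, with normalized cluster intensities fitted with a binding model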
Assay: apparent KD of K4 kissing-loop reporter; higher = weaker reporter binding
Settings: Eterna round: R107; input ligand: theophylline 20 uM
Recorded apparent KD of K4 kissing-loop reporter split into classes range 1 (below 200 nM), range 2 (200 nM to below 400 nM), range 3 (400 nM or more)

* AAAGAUCUUCUAGAAACUAGAAGAUCAAGAGAGGAUAUCCGAAUUCGGAGAAGGCUCACUAAGUGAUGUUUGGAGGGAAUCCCAA [AK1 SS FMN A] | range 3
* CGCUGGGCGAGUGAUGUUCGCUCACGUGAUACCAGUGCCAUCCAACACCCUUGGCAGCACGCGGGCAGUGAUGUUGUCCUUAGUG [Exclusion Theophylline A GF8] | range 1
* AUGCGCGCGGCGGCCGCCACUCGCAUGAGAGUGAUGUUCUCGCCGUGCCCGUAAGGGUGCGGUGUGAGGACCGGGCCGGGCUGCG [#2 Same State - Tryptophan B Attempt #20 (HarryS)] | range 1
* CCUUCCCUUGAUAGUGAUGUUAUCAAGGACAAGGAUAUCAUCUCAAUGAGAAGGUGUCCUUGAUAACAUGGAGGUCUGAAACAGA [Omei KL FMN A Exc C v2] | range 1
* GGAGGAGAAUAUGAUACCAGCAGAGAGAGAGAGGAAGUAUAGUGAUGUUAUAUGUGAGAAUGCCCUUGGCAGCAUAACAUGAAGG [whbob_SS_Theo_B_sa90] | range 3
* GCAGUGAUGUUGCGGAUGUACAGUGGCGUGCGAGGACCGGUACGGCCGCCACUCGUACAGAGCAAGCUAAUACAUCGAUAGGUGA [whbob_SS_Tryp_A_m4] | range 2
* AGUUUAGAGUGACUCGAUAAGAGUCACAAACGAGGACCGGUACGGCCGCCACUCGAAAUAACGAGAGUGAUGUUCUCGCUGGGUA [FiskerMod 4 - Jieux - Same State Tryptophan A] | range 2
* AGAUCUGUAACAGAUACCAGAGGACGAUGAUCGGACAGUGAUGUUAUCUGUCAGUCGUCGCUCCCUUGGCAGCUGUUACAGAUCA [Omei KL Theo B SS B v3] | range 1
* GCGAAAAGCAAAACGAGUGAUGUUCGAAAACGAGGACCGGUACGGCCGCCACUCGAAAACGUCUGCGUGGGAAACUAUGUAGAUG [SS Tryptophan A - 1] | range 3
* AAGCGUGUGGCGGCCGCCACUAGUCUCCAGUGAUGUUGGAGAGAUCACGUAAGUGAUCUCCGACAUAGGACCGGGCCAUAUGGAA [Same State - Tryptophan B (Freestyle 23)] | range 3
* GGCGUCAAACCAGAACUAGUGAUGUUGGUUCGAGGACCGGUACGGCCGCCACUCGAUCUCUUGGUCCAUCGCGGAAGGGCAGCGG [theeternabot_exclusion_KL_Trp_A_29] | range 3
* ACACAGAGUUGCCGAGUGAUGUUCGGCUUACGAGGACCGGUACGGCCGCCACUCGUUACUCUGUGUUUUGGACACCAAGGCGUAG [Edvemaquan] | range 3
* GGAGUUACCUGGGAUACCAGUCGGAGUCCCAGAGCUCGGAGUGAUGUUCUGGGAUGUUUCGGCCCUUGGCAGCUCUGGGACUCCC [#2 Exclusion - Theophylline B Attempt #9 (HarryS)] | range 3
* CCAUCGCUAUUCGAUACCAGUCAGGAGGUCUUUGGCCUCCUAAUGGAGUGAUGUUCCUUAGACCCUUGGCAGCGAAUAGUGAUGG [Theophylline B K4 14] | range 3
* CCUUCCGACACGGCCGCCACUAAUUUCAUCAGAUUGCCCGGAUUUCCAAGAUAGUGAUGUUGUACUAGGACCGGGUGUCAGGUCG [theeternabot_exclusion_KL_Trp_B_16] | range 3
* GAUAGGAAACUAUCAAAUCGGGAAACCGAUACCAGUAUGGAUUCAUACCCUUGGCAGCGGGAUUAUAAAAUAGGAGUGAUGUUCC [Theophylline A K4 16] | range 2
* GAUUUAGAGGCGGCCGCCACUAGUGAUGUUAGUGAUGUUUGAUAGGGAAUAUAUCUGCGAGUAGAUAGGACCGGGCCAGAUGGAG [eccvbmullin] | range 1
* CCGGGCGGCCGAAGGAGCGGGCGGACCCGAGUGAUGUUCGGGUGGACCGUGAGGUCCGGUGCCCAGGUAGGUCGCGGUUCCGUCC [#2 Same State - Arginine B Attempt #6 (HarryS)] | range 1
* CAUGCCAUGAUCCUCCUGGUAUCUCCUGAUACCAGCGUGCUGACACGCCCUUGGCAGCAGGAGUCGAGAGUGAUGUUGUCGAGAA [KL-SSTheo-A9 #analogue] | range 2
* AGCAAUAUCACGGCCGCCACUGAAUAUUGUUUUUAUAGUUAUAAAUCUUGCCAGUGAUGUUGGUUCAGGACCGGGUGAGUUAAUA [JR_SSTryptoB_Sub003] | range 3
